The reported measurements were obtained from patent US10689381B2.

System: L1210
Experiment: cells
Type: cell-based, mouse
Conditions: Table 4
metric: pIC50
Please report pIC50 as the negative decimal logarithm of the molar concentration, giving only the number.

compound	recordedMeasurement
CCC1(NC(=O)C2Cc3ccccc3C2)CC2CN(CCc3c([nH]c4ccccc34)C(C(=O)OC)(c3cc4c(cc3OC)N(C)C3C(O)(C(=O)OC)C(OC(C)=O)C5(CC)C=CCN6CCC43C65)C2)C1 (stereo not shown)	7.52

stdin: Could you share what pIC50 was measured for CCC1(NC(=O)c2ccc3cc(N)ccc3c2)CC2CN(CCc3c([nH]c4ccccc34)C(C(=O)OC)(c3cc4c(cc3OC)N(C)C3C(O)(C(=O)OC)C(OC(C)=O)C5(CC)C=CCN6CCC43C65)C2)C1 (stereo not shown) , tested on L1210?
stdout: 9.15

stdin: Please answer likewise for CCC1(NC(=O)c2ccc3cc(NC(=O)OC(C)(C)C)ccc3c2)CC2CN(CCc3c([nH]c4ccccc34)C(C(=O)OC)(c3cc4c(cc3OC)N(C)C3C(O)(C(=O)OC)C(OC(C)=O)C5(CC)C=CCN6CCC43C65)C2)C1 (stereo not shown)
stdout: 8.30

stdin: Also CCC1(NC(=O)c2ccc3c(c2)CCCC3)CC2CN(CCc3c([nH]c4ccccc34)C(C(=O)OC)(c3cc4c(cc3OC)N(C)C3C(O)(C(=O)OC)C(OC(C)=O)C5(CC)C=CCN6CCC43C65)C2)C1 (stereo not shown) ?
stdout: 8.48

====

System: L1210
Test: cells
Assay type: cell-based, mouse
Settings: Table 2
metric: pIC50
Remember, pIC50 is on a log scale: it is -log10 of the molar concentration.

Example results:
compound	metric	recordedMeasurement
CCC1(NC(=O)c2ccc(C)c(OC)c2)CC2CN(CCc3c([nH]c4ccccc34)C(C(=O)OC)(c3cc4c(cc3OC)N(C)C3C(O)(C(=O)OC)C(OC(C)=O)C5(CC)C=CCN6CCC43C65)C2)C1 (stereo not shown) [Compound 98]	pIC50	8.38
CC[C@]1(NC(=O)c2ccc(OC)c(F)c2)C[C@H]2CN(CCc3c([nH]c4ccccc34)[C@@](C(=O)OC)(c3cc4c(cc3OC)N(C)[C@H]3[C@@](O)(C(=O)OC)[C@H](OC(C)=O)[C@]5(CC)C=CCN6CC[C@]43[C@@H]65)C2)C1 [Compound 90]	pIC50	9.22
CCC1(NC(=O)c2ccc(NC(=O)OC(C)(C)C)cc2)CC2CN(CCc3c([nH]c4ccccc34)C(C(=O)OC)(c3cc4c(cc3OC)N(C)C3C(O)(C(=O)OC)C(OC(C)=O)C5(CC)C=CCN6CCC43C65)C2)C1 (stereo not shown) [Compound 60]	pIC50	9.52

stdin: Give the measured pIC50 of CC[C@]1(NC(=O)c2ccc(C(C)(C)C)cc2)C[C@H]2CN(CCc3c([nH]c4ccccc34)[C@@](C(=O)OC)(c3cc4c(cc3OC)N(C)[C@H]3[C@@](O)(C(=O)OC)[C@H](OC(C)=O)[C@]5(CC)C=CCN6CC[C@]43[C@@H]65)C2)C1 [Compound 38] .
stdout: 9.22

stdin: Please do the same for CCC1(NC(=O)c2ccc(C)cc2)CC2CN(CCc3c([nH]c4ccccc34)C(C(=O)OC)(c3cc4c(cc3OC)N(C)C3C(O)(C(=O)OC)C(OC(C)=O)C5(CC)C=CCN6CCC43C65)C2)C1 (stereo not shown) [Compound 25] as well.
stdout: 9.30

====

Test system: L1210
Test: cells
Assay type: cell-based, mouse
Details: Table 2
// values below are reported IC50
Provide only the numeric value, understood in nM.

compound	system	metric	recordedMeasurement
CC[C@]1(NC(=O)c2ccc(OC)c(C)c2)C[C@H]2CN(CCc3c([nH]c4ccccc34)[C@@](C(=O)OC)(c3cc4c(cc3OC)N(C)[C@H]3[C@@](O)(C(=O)OC)[C@H](OC(C)=O)[C@]5(CC)C=CCN6CC[C@]43[C@@H]65)C2)C1 [Compound 97]	L1210	IC50	0.6

stdin: API: value(readout=IC50, system=L1210) for record CC[C@]1(NC(=O)c2cccc(Cl)c2)C[C@H]2CN(CCc3c([nH]c4ccccc34)[C@@](C(=O)OC)(c3cc4c(cc3OC)N(C)[C@H]3[C@@](O)(C(=O)OC)[C@H](OC(C)=O)[C@]5(CC)C=CCN6CC[C@]43[C@@H]65)C2)C1 [Compound 48]
stdout: 4.2

====

Tested on: L1210
Assay: cells
Format: cell-based, mouse
Details: Table 2
Definition: the class of an entry is the range in low bin (below 2 nM), mid bin (2 nM to below 5 nM), high bin (5 nM or more) that contains its IC50.

compound	system	classification
CC[C@]1(NC(=O)c2ccc(F)cc2)C[C@H]2CN(CCc3c([nH]c4ccccc34)[C@@](C(=O)OC)(c3cc4c(cc3OC)N(C)[C@H]3[C@@](O)(C(=O)OC)[C@H](OC(C)=O)[C@]5(CC)C=CCN6CC[C@]43[C@@H]65)C2)C1	L1210	low bin

stdin: Please indicate the class for "CC[C@]1(NC(=O)c2ccccc2C)C[C@H]2CN(CCc3c([nH]c4ccccc34)[C@@](C(=O)OC)(c3cc4c(cc3OC)N(C)[C@H]3[C@@](O)(C(=O)OC)[C@H](OC(C)=O)[C@]5(CC)C=CCN6CC[C@]43[C@@H]65)C2)C1" based on its IC50.
stdout: high bin

stdin: Follow-up item: "CC[C@]1(NC(=O)c2ccc(OCc3ccccc3)cc2)C[C@H]2CN(CCc3c([nH]c4ccccc34)[C@@](C(=O)OC)(c3cc4c(cc3OC)N(C)[C@H]3[C@@](O)(C(=O)OC)[C@H](OC(C)=O)[C@]5(CC)C=CCN6CC[C@]43[C@@H]65)C2)C1"
stdout: high bin

stdin: // next record CCC1(NC(=O)c2ccc(C)c(NC(=O)OC(C)(C)C)c2)CC2CN(CCc3c([nH]c4ccccc34)C(C(=O)OC)(c3cc4c(cc3OC)N(C)C3C(O)(C(=O)OC)C(OC(C)=O)C5(CC)C=CCN6CCC43C65)C2)C1 (centres unmarked)
stdout: high bin

stdin: Next compound: CCC1(NC(=O)c2ccccc2OC)CC2CN(CCc3c([nH]c4ccccc34)C(C(=O)OC)(c3cc4c(cc3OC)N(C)C3C(O)(C(=O)OC)C(OC(C)=O)C5(CC)C=CCN6CCC43C65)C2)C1 (centres unmarked)
stdout: high bin

stdin: Also "CCc1cc(CC)cc(C(=O)N[C@@]2(CC)C[C@H]3CN(CCc4c([nH]c5ccccc45)[C@@](C(=O)OC)(c4cc5c(cc4OC)N(C)[C@H]4[C@@](O)(C(=O)OC)[C@H](OC(C)=O)[C@]6(CC)C=CCN7CC[C@]54[C@@H]76)C3)C2)c1" , if possible.
stdout: mid bin

====

Recorded IC50 values for a group of compounds are listed next.
System: L1210
Assay: cells
Format: cell-based, mouse
Settings: Table 2
Write the number in nM without appending the unit.

Consider the reported IC50 for these compounds:
compound	system	units	IC50
CCC1(NC(=O)c2ccc(CN)cc2)CC2CN(CCc3c([nH]c4ccccc34)C(C(=O)OC)(c3cc4c(cc3OC)N(C)C3C(O)(C(=O)OC)C(OC(C)=O)C5(CC)C=CCN6CCC43C65)C2)C1 (stereo not shown) [Compound 65]	L1210	nM	25
CCC1(NC(=O)c2ccc(Oc3ccccc3)cc2)CC2CN(CCc3c([nH]c4ccccc34)C(C(=O)OC)(c3cc4c(cc3OC)N(C)C3C(O)(C(=O)OC)C(OC(C)=O)C5(CC)C=CCN6CCC43C65)C2)C1 (stereo not shown) [Compound 76]	L1210	nM	5.2
CCC1(NC(=O)c2ccc(Br)c(Br)c2)CC2CN(CCc3c([nH]c4ccccc34)C(C(=O)OC)(c3cc4c(cc3OC)N(C)C3C(O)(C(=O)OC)C(OC(C)=O)C5(CC)C=CCN6CCC43C65)C2)C1 (stereo not shown) [Compound 53]	L1210	nM	60

Okay, now this compound:
stdin: Form field - read-out: IC50; system: L1210; submitted item: CC[C@]1(NC(=O)c2ccccc2OC(F)(F)F)C[C@H]2CN(CCc3c([nH]c4ccccc34)[C@@](C(=O)OC)(c3cc4c(cc3OC)N(C)[C@H]3[C@@](O)(C(=O)OC)[C@H](OC(C)=O)[C@]5(CC)C=CCN6CC[C@]43[C@@H]65)C2)C1 [Compound 80]
stdout: 450

====

Listed here: items and their measured IC50.
Tested on: HCT116
Experiment: cells
Type: cell-based, human
Conditions: Table 6; read-out: IC50 HCT116
Kindly provide the numeric value in nM only, without the unit symbol.

The cases that follow already have their IC50 on record.
compound	IC50 / nM
CCC1(NC(=O)c2ccc3c(c2)CCN3)CC2CN(CCc3c([nH]c4ccccc34)C(C(=O)OC)(c3cc4c(cc3OC)N(C)C3C(O)(C(=O)OC)C(OC(C)=O)C5(CC)C=CCN6CCC43C65)C2)C1 (stereo not shown) [Compound 177]	6.7
CC[C@]1(NC(=O)c2nc3ccccc3o2)C[C@H]2CN(CCc3c([nH]c4ccccc34)[C@@](C(=O)OC)(c3cc4c(cc3OC)N(C)[C@H]3[C@@](O)(C(=O)OC)[C@H](OC(C)=O)[C@]5(CC)C=CCN6CC[C@]43[C@@H]65)C2)C1 [Compound 169]	60
CCC1(NC(=O)c2ccc3occc3c2)CC2CN(CCc3c([nH]c4ccccc34)C(C(=O)OC)(c3cc4c(cc3OC)N(C)C3C(O)(C(=O)OC)C(OC(C)=O)C5(CC)C=CCN6CCC43C65)C2)C1 (stereo not shown) [Compound 158]	3.8

Please turn your attention to the following entry.
stdin: Record CCC1(NC(=O)c2ccc3c(c2)CCO3)CC2CN(CCc3c([nH]c4ccccc34)C(C(=O)OC)(c3cc4c(cc3OC)N(C)C3C(O)(C(=O)OC)C(OC(C)=O)C5(CC)C=CCN6CCC43C65)C2)C1 (stereo not shown) [Compound 161] : what is its IC50 with HCT116?
stdout: 0.25
